Tested on: Parabacteroides merdae
Assay: growth AUC relative to DMSO control (median of replicates) (fraction); higher = more growth (less inhibition), active = hit call of the paper
Details: 20 µM; 24 h
growth AUC for assorted compounds
Output spec: single numeric token, no unit.

Sample answers from the record:
# COMPOUND, growth AUC
records = [
    ("BrCCBr", 0.99),
    ("O=C(O)C(F)(F)C(F)(F)C(F)(F)C(F)(F)C(F)(F)C(F)(F)C(F)(F)C(F)(F)C(F)(F)F", 0.97),
    ("CCCN(CCC)c1c([N+](=O)[O-])cc(C(C)C)cc1[N+](=O)[O-]", 0.984),
]

Here's the next entry for you.
Supply recorded growth AUC for CNC(=O)Oc1cccc2ccccc12 here. 1

###

Test system: Bacteroides clarus
Experiment: growth AUC relative to DMSO control (median of replicates) (fraction); higher = more growth (less inhibition), active = hit call of the paper
Details: 20 µM; 24 h
Tag: condition met if measured growth AUC is not below 1, condition not met if it is.

Example entries begin here.
# COMPOUND, LABEL_CLASS
rows = [
    ("ClC1=C(Cl)[C@]2(Cl)[C@@H]3[C@H]4C[C@H]([C@@H]5O[C@H]45)[C@@H]3[C@@]1(Cl)C2(Cl)Cl", "condition not met"),
    ("CCOP(=S)(OCC)SCSP(=S)(OCC)OCC", "condition not met"),
    ("Oc1ccc(Cc2ccc(O)cc2)cc1", "condition met"),
    ("OC(Cc1ccccc1Cl)(Cn1[nH]cnc1=S)C1(Cl)CC1 (centres undefined)", "condition not met"),
    ("CNC(=O)Oc1cccc(N=CN(C)C)c1.Cl", "condition met"),
]

Record COc1ccc(C(c2ccc(OC)cc2)C(Cl)(Cl)Cl)cc1 ; criterion: growth AUC no lower than 1. Met? condition not met

Record ClC1=C(Cl)C2(Cl)C3COCC3C1(Cl)C2(Cl)Cl (centres undefined) ; criterion: growth AUC no lower than 1. Met? condition met

Record CN(C)C(=O)C(c1ccccc1)c1ccccc1 ; criterion: growth AUC no lower than 1. Met? condition not met

Record CCCCOC(=O)N(C)SN(C)C(=O)Oc1cccc2c1OC(C)(C)C2 ; criterion: growth AUC no lower than 1. Met? condition not met

Record CC(=NCc1ccc(Cl)nc1)NC#N ; criterion: growth AUC no lower than 1. Met? condition met

###

Test system: Eubacterium rectale
Assay: growth AUC relative to DMSO control (median of replicates) (fraction); higher = more growth (less inhibition), active = hit call of the paper
Conditions: 20 µM; 24 h
Tag: Y if measured growth AUC is not below 1, N if it is.

# COMPOUND, TESTED_SYSTEM, LABEL_CLASS
rows = [
    ("CCNc1nc(Cl)nc(NCC)n1", "Eubacterium rectale", "N"),
    ("CCCCOCN(C(=O)CCl)c1c(CC)cccc1CC", "Eubacterium rectale", "Y"),
    ("N#Cc1cc(I)c(O)c(I)c1", "Eubacterium rectale", "N"),
    ("COP(=S)(OC)Oc1nc(Cl)c(Cl)cc1Cl", "Eubacterium rectale", "N"),
    ("COCc1c(F)c(F)c(COC(=O)C2C(C=C(C)C)C2(C)C)c(F)c1F (stereo unspecified)", "Eubacterium rectale", "N"),
    ("CN(C)C(=O)Nc1cccc(OC(=O)NC(C)(C)C)c1", "Eubacterium rectale", "Y"),
]

Record CNC(=O)N(C)c1nc2ccccc2s1 ; criterion: growth AUC no lower than 1. Met? N

Record COP(=S)(NC(C)C)Oc1ccccc1C(=O)OC(C)C (stereo unspecified) ; criterion: growth AUC no lower than 1. Met? N

Record CCc1nn(C)c(C(=O)NCc2ccc(Oc3ccc(C)cc3)cc2)c1Cl ; criterion: growth AUC no lower than 1. Met? N

Record CCOC(=O)CCN(SN(C)C(=O)Oc1cccc2c1OC(C)(C)C2)C(C)C ; criterion: growth AUC no lower than 1. Met? Y

Record COP(=S)(OC)Oc1cc(Cl)c(Br)cc1Cl ; criterion: growth AUC no lower than 1. Met? Y

Record BrCCBr ; criterion: growth AUC no lower than 1. Met? Y

Record CC(C)(C)c1cc([N+](=O)[O-])cc([N+](=O)[O-])c1O ; criterion: growth AUC no lower than 1. Met? N

Record Cc1ccc(N=CN(C)C=Nc2ccc(C)cc2C)c(C)c1 ; criterion: growth AUC no lower than 1. Met? Y

Record C[C@H]1[C@H](c2ccc(Cl)cc2)SC(=O)N1C(=O)NC1CCCCC1 ; criterion: growth AUC no lower than 1. Met? Y

###

Tested on: Lactobacillus paracasei
Experiment: growth AUC relative to DMSO control (median of replicates) (fraction); higher = more growth (less inhibition), active = hit call of the paper
Settings: 20 µM; 24 h
Tag: YES if measured growth AUC is not below 1, NO if it is.

Example entries begin here.
# MOLECULE, TESTED_SYSTEM, LABEL_CLASS
rows = [
    ("Clc1ccc(C(c2ccc(Cl)cc2)C(Cl)(Cl)Cl)cc1", "Lactobacillus paracasei", "NO"),
    ("Cc1ccc(NC(=O)c2snnc2C)cc1Cl", "Lactobacillus paracasei", "NO"),
    ("Oc1ccccc1Cl", "Lactobacillus paracasei", "NO"),
    ("COC(=O)/C(C)=C/OP(=S)(OC)OC", "Lactobacillus paracasei", "YES"),
    ("CCCC1COC(Cn2cncn2)(c2ccc(Cl)cc2Cl)O1 (stereo unspecified)", "Lactobacillus paracasei", "NO"),
]

Record O=C(Nc1ccccc1)c1ccccc1I ; criterion: growth AUC no lower than 1. Met? NO

###

Tested on: Lactobacillus gasseri
Assay: growth AUC relative to DMSO control (median of replicates) (fraction); higher = more growth (less inhibition), active = hit call of the paper;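 active = AUC reduced over 20% with Padj below 0.05 in at least 2 of 3 replicates; inactive = otherwise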
Settings: 20 µM; 24 h
Your answer must be one of the following: YES = active, NO = inactive

Example entries begin here.
# COMPOUND, LABEL_CLASS
rows = [
    ("O=C1C(Cl)=C(Cl)C(=O)C(Cl)=C1Cl", "NO"),
    ("CN(C)C(=O)Nc1ccc(Cl)cc1", "NO"),
    ("CCOP(=O)(OCC)O/C(=C/Br)c1ccc(Cl)cc1Cl", "NO"),
    ("CCNc1nc(NC(C)C)[nH]c(=O)n1", "NO"),
    ("CCC(C)(NC(=O)c1cc(Cl)c(C)c(Cl)c1)C(=O)CCl (stereo not drawn)", "NO"),
]

Check the results log: what was the call for CCCCCCCCCCCCC1=C(OC(C)=O)C(=O)c2ccccc2C1=O ? YES

Check the results log: what was the call for CCOc1nc(NC)nc(NC(=O)NS(=O)(=O)c2ccccc2C(=O)OC)n1 ? NO

Check the results log: what was the call for Nc1ccc(Cc2ccc(N)c(Cl)c2)cc1Cl ? NO

Check the results log: what was the call for CC(=NCc1ccc(Cl)nc1)NC#N ? NO

Check the results log: what was the call for CCOP(=S)(OCC)Oc1ccc(Cl)cc1Cl ? NO

Check the results log: what was the call for CCc1cnc(C2=NC(C)(C(C)C)C(=O)N2)c(C(=O)O)c1 (stereo not drawn) ? NO

Check the results log: what was the call for Cc1cc(Cl)ccc1OC(C)C(=O)O (stereo not drawn) ? NO

Check the results log: what was the call for CCS(=O)(=O)c1nc2ccccn2c1S(=O)(=O)NC(=O)Nc1nc(OC)cc(OC)n1 ? NO

Check the results log: what was the call for Cc1cc(Cl)ccc1OCC(=O)O ? NO

Check the results log: what was the call for COc1c(Cl)ccc(Cl)c1Cl ? NO

Check the results log: what was the call for CCOP(=S)(OCC)Oc1ccc(S(C)=O)cc1 (stereo not drawn) ? NO

Check the results log: what was the call for O=P(O)(O)CCCl ? NO

Check the results log: what was the call for CC(C)=CC1C(C(=O)OC(C#N)c2cccc(Oc3ccccc3)c2)C1(C)C (mixture of isomers) ? NO

Check the results log: what was the call for CCN(CC)c1c([N+](=O)[O-])cc(C(F)(F)F)c(N)c1[N+](=O)[O-] ? NO

Check the results log: what was the call for C[C@H]1[C@H](c2ccc(Cl)cc2)SC(=O)N1C(=O)NC1CCCCC1 ? NO

Check the results log: what was the call for O=c1oc2ccccc2c(O)c1C1CC(c2ccc(-c3ccc(Br)cc3)cc2)Cc2ccccc21 (stereo not drawn) ? YES

Check the results log: what was the call for O=P(OC(CCl)CCl)(OC(CCl)CCl)OC(CCl)CCl ? NO

Check the results log: what was the call for CCC/C(=N\OCC)C1=C(O)CC(CC(C)SCC)CC1=O (stereo not drawn) ? NO

###

Tested on: Lactobacillus gasseri
Assay: growth AUC relative to DMSO control (median of replicates) (fraction); higher = more growth (less inhibition), active = hit call of the paper
Details: 20 µM; 24 h
Tag: TRUE if measured growth AUC is not below 1, FALSE if it is.

# COMPOUND, LABEL_CLASS
rows = [
    ("Oc1cccc2cccnc12", "TRUE"),
]

Now look at this entry.
Record CCOC(=O)Nc1cccc(OC(=O)Nc2ccccc2)c1 ; criterion: growth AUC no lower than 1. Met? TRUE

Provenance of the data: the supplement of paper PMC12669032
